IC50 reference
Target: Cyclin-dependent kinase 2 (Homo sapiens)

[ask] Value wanted: IC50 (Cyclin-dependent kinase 2 (Homo sapiens)) of entry COC[C@@H](C)N[C@H]1CC[C@H](Nc2cc(-c3cccc(NCC4(C#N)CCOCC4)n3)c(Cl)cn2)CC1
[reply] > 10 µM

Next compound, IC50 to be filled in.
[ask] Value wanted: IC50 (Cyclin-dependent kinase 2 (Homo sapiens)) of entry CCCNNC(=O)CCCCCCn1cc(Nc2ncc(Cl)c(-c3cnc4ccccn34)n2)cn1
[reply] > 10 µM

----------
Molecular target: Histone deacetylase 4 (Homo sapiens, UniProt P56524)
Sequence (P56524 whole entry): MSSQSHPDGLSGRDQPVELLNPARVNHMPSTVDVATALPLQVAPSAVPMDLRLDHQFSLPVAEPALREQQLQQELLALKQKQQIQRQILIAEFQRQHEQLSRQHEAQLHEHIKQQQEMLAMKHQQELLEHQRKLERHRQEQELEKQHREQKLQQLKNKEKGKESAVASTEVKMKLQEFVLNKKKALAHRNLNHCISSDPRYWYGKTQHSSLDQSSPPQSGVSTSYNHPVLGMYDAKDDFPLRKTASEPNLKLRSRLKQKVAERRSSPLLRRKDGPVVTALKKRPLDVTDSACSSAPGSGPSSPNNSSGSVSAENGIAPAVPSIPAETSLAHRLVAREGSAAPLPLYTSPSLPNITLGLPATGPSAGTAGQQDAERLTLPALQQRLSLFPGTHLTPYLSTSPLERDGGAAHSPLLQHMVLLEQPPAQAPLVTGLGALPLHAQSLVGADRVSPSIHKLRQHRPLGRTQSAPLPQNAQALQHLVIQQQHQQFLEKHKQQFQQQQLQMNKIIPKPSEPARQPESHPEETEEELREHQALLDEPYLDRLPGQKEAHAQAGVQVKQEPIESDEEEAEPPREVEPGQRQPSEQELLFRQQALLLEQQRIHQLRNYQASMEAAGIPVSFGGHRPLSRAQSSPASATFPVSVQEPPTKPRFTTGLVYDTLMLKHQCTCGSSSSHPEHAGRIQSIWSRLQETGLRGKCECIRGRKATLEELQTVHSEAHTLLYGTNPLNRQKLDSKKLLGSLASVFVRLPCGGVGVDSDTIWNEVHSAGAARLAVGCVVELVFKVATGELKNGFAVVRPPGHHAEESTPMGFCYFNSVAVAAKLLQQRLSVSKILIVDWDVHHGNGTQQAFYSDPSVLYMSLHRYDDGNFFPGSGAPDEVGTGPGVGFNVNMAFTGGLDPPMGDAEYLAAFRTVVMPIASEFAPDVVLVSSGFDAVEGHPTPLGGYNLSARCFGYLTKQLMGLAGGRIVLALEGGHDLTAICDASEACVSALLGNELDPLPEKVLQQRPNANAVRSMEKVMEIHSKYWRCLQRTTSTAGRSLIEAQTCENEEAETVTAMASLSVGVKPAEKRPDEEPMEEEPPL
Assay: Inhibition of human recombinant HDAC4 using Ac-Leu-Gly-Lys(Tfa)-AMC as substrate incubated for 24 hrs by fluorescence based Envision plate reader analysis
measuredParameter: IC50

Here is how some compounds turned out for IC50.
[ask] What value of IC50 has been recorded for this entry: CCCNNC(=O)CCCCCCn1cc(Nc2ncc(Cl)c(-c3cnc4ccccn34)n2)cn1
[reply] > 20 µM

[ask] What value of IC50 has been recorded for this entry: N#CC1(CNc2cccc(-c3cc(Nc4cnn(CCCCCCC(=O)Nc5ccccc5N)c4)ncc3Cl)n2)CCOCC1
[reply] > 20 µM

[ask] What value of IC50 has been recorded for this entry: O=C(CCCCCCn1cc(Nc2ncc(Cl)c(-c3cnc4ccccn34)n2)cn1)NO
[reply] > 10 µM

[ask] What value of IC50 has been recorded for this entry: COc1cc(F)ccc1-c1cc(Nc2cnn(CCCCCCC(=O)NO)c2)ncc1F
[reply] > 10 µM

New cases:
[ask] What value of IC50 has been recorded for this entry: COc1cc(F)ccc1-c1cc(Nc2ccc(NC(=O)CCCCCCC(=O)NO)cc2)ncc1F
[reply] > 10 µM

----------
Target: UniProt:P36888
Sequence (P36888 whole entry): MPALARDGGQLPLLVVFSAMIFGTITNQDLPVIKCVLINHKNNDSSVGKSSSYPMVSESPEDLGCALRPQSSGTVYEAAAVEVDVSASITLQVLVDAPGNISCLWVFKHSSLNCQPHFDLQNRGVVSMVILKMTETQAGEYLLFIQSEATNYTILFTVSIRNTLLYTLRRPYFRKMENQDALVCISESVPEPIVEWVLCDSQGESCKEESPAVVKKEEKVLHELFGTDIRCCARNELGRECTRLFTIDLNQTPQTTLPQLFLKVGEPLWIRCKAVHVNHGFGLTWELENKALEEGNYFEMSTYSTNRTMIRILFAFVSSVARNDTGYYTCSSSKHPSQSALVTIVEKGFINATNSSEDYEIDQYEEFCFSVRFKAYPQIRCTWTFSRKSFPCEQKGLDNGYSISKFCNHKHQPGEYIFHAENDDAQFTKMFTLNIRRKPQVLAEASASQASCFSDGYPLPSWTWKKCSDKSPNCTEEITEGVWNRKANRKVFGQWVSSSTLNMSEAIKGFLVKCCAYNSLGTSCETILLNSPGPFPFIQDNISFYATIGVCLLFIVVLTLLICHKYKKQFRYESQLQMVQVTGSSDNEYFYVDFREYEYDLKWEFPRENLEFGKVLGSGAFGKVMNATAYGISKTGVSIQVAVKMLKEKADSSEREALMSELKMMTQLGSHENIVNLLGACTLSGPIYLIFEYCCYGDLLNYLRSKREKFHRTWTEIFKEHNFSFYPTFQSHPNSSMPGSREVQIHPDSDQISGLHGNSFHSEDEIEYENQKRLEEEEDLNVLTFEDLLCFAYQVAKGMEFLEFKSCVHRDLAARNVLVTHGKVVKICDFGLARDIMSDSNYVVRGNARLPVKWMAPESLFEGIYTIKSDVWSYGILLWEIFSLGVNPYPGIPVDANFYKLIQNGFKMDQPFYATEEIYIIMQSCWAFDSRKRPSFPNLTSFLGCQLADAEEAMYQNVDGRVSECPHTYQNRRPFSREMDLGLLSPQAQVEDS
pIC50: −log10 of the molar value.
measuredParameter: pIC50

[ask] Value wanted: pIC50 (UniProt:P36888) of entry N#CC1(CNc2cccc(-c3cc(Nc4cnn(Cc5ccc(C(=O)Nc6ccccc6N)cc5)c4)ncc3Cl)n2)CCOCC1
[reply] < 5.00

----------
Molecular target: Tyrosine-protein kinase JAK3 (Homo sapiens)
Sequence (P52333 whole entry): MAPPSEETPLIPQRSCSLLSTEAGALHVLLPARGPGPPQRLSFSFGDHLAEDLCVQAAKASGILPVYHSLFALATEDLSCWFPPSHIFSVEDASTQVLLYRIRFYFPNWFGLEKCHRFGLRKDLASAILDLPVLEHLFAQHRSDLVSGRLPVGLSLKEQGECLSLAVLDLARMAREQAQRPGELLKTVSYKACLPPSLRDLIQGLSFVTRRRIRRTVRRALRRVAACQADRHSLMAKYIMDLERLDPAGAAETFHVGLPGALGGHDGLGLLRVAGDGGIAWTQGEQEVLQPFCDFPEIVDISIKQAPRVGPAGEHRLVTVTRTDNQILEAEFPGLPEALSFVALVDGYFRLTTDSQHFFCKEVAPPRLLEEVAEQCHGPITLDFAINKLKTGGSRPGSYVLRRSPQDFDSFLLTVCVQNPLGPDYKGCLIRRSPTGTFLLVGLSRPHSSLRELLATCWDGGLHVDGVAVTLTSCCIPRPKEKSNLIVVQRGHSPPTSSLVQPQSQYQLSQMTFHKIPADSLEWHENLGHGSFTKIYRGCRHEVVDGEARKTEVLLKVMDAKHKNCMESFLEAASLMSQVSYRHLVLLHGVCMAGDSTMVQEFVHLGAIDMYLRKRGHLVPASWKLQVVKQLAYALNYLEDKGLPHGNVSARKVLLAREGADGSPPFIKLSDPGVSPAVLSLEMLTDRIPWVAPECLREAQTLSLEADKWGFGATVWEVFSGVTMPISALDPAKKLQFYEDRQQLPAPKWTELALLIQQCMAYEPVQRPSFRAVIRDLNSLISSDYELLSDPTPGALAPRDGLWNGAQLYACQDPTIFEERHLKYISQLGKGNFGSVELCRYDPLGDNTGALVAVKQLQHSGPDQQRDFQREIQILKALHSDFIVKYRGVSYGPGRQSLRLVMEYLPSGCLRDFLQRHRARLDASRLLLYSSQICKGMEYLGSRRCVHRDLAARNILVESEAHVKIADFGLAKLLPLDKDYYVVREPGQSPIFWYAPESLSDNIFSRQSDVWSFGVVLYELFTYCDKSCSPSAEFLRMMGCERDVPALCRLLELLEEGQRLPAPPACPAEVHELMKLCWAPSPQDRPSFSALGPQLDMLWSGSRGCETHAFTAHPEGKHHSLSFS
measuredParameter: IC50
Please make sure the unit comes right after the number.

[ask] What value of IC50 has been recorded for this entry: CCCNNC(=O)c1ccc(Cn2cc(Nc3ncc(Cl)c(-c4cnc5ccccn45)n3)cn2)cc1
[reply] 2380 nM

----------
Target: Serine/threonine-protein kinase pim-1 (Homo sapiens, UniProt P11309)
Sequence (P11309 whole entry): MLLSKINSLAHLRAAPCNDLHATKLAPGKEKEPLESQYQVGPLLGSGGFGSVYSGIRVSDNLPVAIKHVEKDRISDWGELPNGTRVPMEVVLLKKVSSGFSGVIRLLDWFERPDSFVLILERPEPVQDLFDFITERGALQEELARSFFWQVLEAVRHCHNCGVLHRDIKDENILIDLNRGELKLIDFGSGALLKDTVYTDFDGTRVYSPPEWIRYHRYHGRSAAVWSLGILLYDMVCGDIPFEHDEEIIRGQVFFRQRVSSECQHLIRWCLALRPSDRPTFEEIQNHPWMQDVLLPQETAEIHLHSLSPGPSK
pIC50: −log10 of the molar value.
measuredParameter: pIC50

[ask] Value wanted: pIC50 (Serine/threonine-protein kinase pim-1 (Homo sapiens, UniProt P11309)) of entry CCCNNC(=O)c1ccc(Cn2cc(Nc3ncc(Cl)c(-c4cnc5ccccn45)n3)cn2)cc1
[reply] < 5.00

----------
pIC50 reference
Target: Histone deacetylase 4 (Homo sapiens, UniProt P56524)
Test: Inhibition of human recombinant HDAC4 using Ac-Leu-Gly-Lys(Tfa)-AMC as substrate incubated for 24 hrs by fluorescence based Envision plate reader analysis
pIC50: −log10 of the molar value.

Here is how some molecules turned out for pIC50.
[ask] What value of pIC50 has been recorded for this entry: COc1cc(F)ccc1-c1cc(Nc2cnn(CCCCCC(=O)NO)c2)ncc1F
[reply] < 5.00

[ask] What value of pIC50 has been recorded for this entry: CCCNNC(=O)CCCCCn1cc(Nc2ncc(Cl)c(-c3cnc4ccc(-c5ccccc5)cn34)n2)cn1
[reply] < 4.70

Next molecule, pIC50 to be filled in.
[ask] What value of pIC50 has been recorded for this entry: COc1cc(F)ccc1-c1cc(Nc2ccc(NC(=O)CCCCCCC(=O)Nc3ccccc3N)cc2)ncc1F
[reply] < 4.70
